Where these numbers come from: the supplement of paper PMC12645437

system-tested: T1, CRBN, Q96SW2;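 further: pooled lentiviral library of zinc finger degron-EGFP fusions in mCherry-positive Jurkat cells, FACS-sorted after compound exposure, with degron abundance counted by next-generation sequencing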
T1 chain: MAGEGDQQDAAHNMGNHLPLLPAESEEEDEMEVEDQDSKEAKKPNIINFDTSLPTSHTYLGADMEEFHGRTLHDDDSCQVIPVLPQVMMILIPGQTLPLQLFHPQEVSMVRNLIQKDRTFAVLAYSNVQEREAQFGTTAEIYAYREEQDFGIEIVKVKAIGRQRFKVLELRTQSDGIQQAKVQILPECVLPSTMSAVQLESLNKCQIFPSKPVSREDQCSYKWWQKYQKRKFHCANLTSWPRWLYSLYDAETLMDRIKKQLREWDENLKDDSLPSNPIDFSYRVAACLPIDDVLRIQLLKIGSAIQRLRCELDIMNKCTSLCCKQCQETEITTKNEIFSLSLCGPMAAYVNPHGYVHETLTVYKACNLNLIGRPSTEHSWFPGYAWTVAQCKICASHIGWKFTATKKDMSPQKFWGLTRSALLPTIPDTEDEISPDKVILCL
assay-name: log2 fold change of degron read counts, EGFP-low vs EGFP+ sorted cells (limma voom), compound-induced degradation; higher = more compound-induced degradation of the degron-EGFP fusion; degrons are variants of IKZF1/3 zinc finger 2; compound dose not given here
measurement-conditions: Jurkat; 18 h; compound: compound 22 (5-morpholino-thalidomide)
Whole data set: some 8,300 sequences, median “log2 fold change of degron read counts, EGFP-low vs EGFP+ sorted cells (limma voom), compound-induced degradation” near -1.1, cut for the highest 2% near 3.2. This is one part of a sample in which the highest values are shown more often than they occur.
Lab note: anything with log2 fold change of degron read counts at or over 0.7 counts as 1; the rest go in -1.

Lookup: Assess whether reported log2 fold change of degron read counts for FYCNVCGAIFTQKGNLLRHIKL [46F_47Y_49N_50V_52G_53A_54I_55F_67L_, Q9UKT9] sits at 0.7 or higher.
Found: -1
